- TEST TARGET: human enzyme NAMPT (full length) (Homo sapiens, UniProt P43490)
- Construct: human enzyme NAMPT (full length)
- Sequence (P43490 whole entry): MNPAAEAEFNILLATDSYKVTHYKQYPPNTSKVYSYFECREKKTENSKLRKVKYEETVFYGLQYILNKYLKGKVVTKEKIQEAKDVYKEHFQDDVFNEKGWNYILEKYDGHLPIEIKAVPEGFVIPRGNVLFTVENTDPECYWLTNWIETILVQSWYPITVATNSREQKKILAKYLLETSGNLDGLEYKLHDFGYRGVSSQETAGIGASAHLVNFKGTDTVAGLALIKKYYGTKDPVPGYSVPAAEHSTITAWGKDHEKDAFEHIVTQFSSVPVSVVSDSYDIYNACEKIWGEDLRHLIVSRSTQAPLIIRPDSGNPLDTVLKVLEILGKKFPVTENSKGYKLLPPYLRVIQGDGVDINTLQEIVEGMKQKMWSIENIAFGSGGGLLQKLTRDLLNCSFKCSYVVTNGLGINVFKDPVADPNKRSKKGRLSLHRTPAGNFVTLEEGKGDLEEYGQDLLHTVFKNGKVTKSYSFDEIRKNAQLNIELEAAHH
- PROTOCOL DETAILS: NMN fluorescence biochemical assay (stimulation of NMN synthesis by NAMPT)
- CONDITION CONTEXT: fold change of maximal activation compared to DMSO
MEASURED QUANTITY: Enzymatic Emax

Cn1ncc(Cl)c1CC1c2ccccc2C(=O)N1CC1CCc2[nH]nnc21 (stereo not drawn) [Compound 457] :: C (2≥C)
Cn1c(CC2c3ccccc3C(=O)N2CC2CC3(CNC(=O)O3)C2)ccc(Cl)c1=O (stereo not drawn) [Compound 472] :: C (2≥C)
O=C1c2ccccc2C(Cc2ccc(Br)cn2)N1Cc1ccc2[nH]c(=O)oc2c1 (stereo not drawn) [Compound 262] :: A (A>3)
O=C1Cc2ccccc2CN1Cc1ccc(O)cc1 [Compound 10] :: B (3≥B>2)
NC(=O)Nc1ccc(CN2Cc3ccccc3C2=O)cc1 [Compound 293] :: C (2≥C)
Cn1ncc(Cl)c1CC1c2c(F)cccc2C(=O)N1Cc1ccc2[nH]nnc2c1 (stereo not drawn) [Compound 338] :: A (A>3)
COc1ccc(CN2C(=O)c3ccc(C4CC4)cc3C2Cc2c(Cl)cnn2C)cc1 (stereo not drawn) [Compound 624] :: B (3≥B>2)
Cn1ncc(Cl)c1CC1c2ccccc2C(=O)N1Cc1cc(=O)[nH]o1 (stereo not drawn) [Compound 602] :: B (3≥B>2)

Now, please, on to the next molecule.
Enzymatic Emax of Cn1ncc(Cl)c1CC1(C)c2cc(Br)ccc2C(=O)N1Cc1ccc2[nH]c(=O)oc2c1 (stereo not drawn) [Compound 419] on human enzyme NAMPT (full length) (Homo sapiens, UniProt P43490)?
A (A>3)

* * *

Below, each entry is listed with its recorded EC50.
- TEST TARGET: human enzyme NAMPT (full length) (Homo sapiens)
- Construct: human enzyme NAMPT (full length)
- PROTOCOL DETAILS: NMN fluorescence biochemical assay (stimulation of NMN synthesis by NAMPT)
- CONDITION CONTEXT: NMN fluorescence assay, purified human NAMPT 100 nM; concentration giving half-maximal activation; read-out: Enzymatic EC50

The following molecules have reported results that may help.
CN1CC(c2nn(C)c(CC3c4ccccc4C(=O)N3CC3CC4(CNC(=O)O4)C3)c2Cl)C1 (stereo not shown) :: < 500 nM
Cc1nn(C)c(C#N)c1CC1c2ccccc2C(=O)N1CC1CC2(CNC(=O)O2)C1 (stereo not shown) :: 500 to 5000 nM
Cn1nc(C#N)c(CC2c3ccccc3C(=O)N2Cc2ccc3[nH]nnc3c2)c1Cl (stereo not shown) :: < 500 nM

Now, please, on to the next molecule.
EC50 of COc1ncc(CN2C(=O)c3ccccc3C2Cc2c(Cl)cnn2C)o1 (stereo not shown) on human enzyme NAMPT (full length) (Homo sapiens)?
≥ 5000 nM

* * *

- TEST TARGET: human enzyme NAMPT (full length) (Homo sapiens, UniProt P43490)
- Construct: human enzyme NAMPT (full length)
- PROTOCOL DETAILS: NMN fluorescence biochemical assay (stimulation of NMN synthesis by NAMPT)
- CONDITION CONTEXT: NMN fluorescence assay, purified human NAMPT 100 nM; concentration giving half-maximal activation; read-out: Enzymatic EC50
pEC50: −log10 of the molar value.
Below, each entry is listed with its recorded pEC50.

The following compounds have reported results that may help.
Cn1nc(Cl)c(CC2c3ccccc3C(=O)N2Cc2ccc3[nH]nnc3c2)n1 (centres unmarked) [Compound 335] :: 5.30 to 6.30
Cc1noc2cc(CN3C(=O)c4ccccc4C3Cc3c(Cl)cnn3C)ccc12 (centres unmarked) [Compound 594] :: ≤ 5.30
Cn1ncc(Cl)c1CC1c2cc(F)cc(F)c2C(=O)N1CC1CC2(CNC(=O)O2)C1 (centres unmarked) [Compound 496] :: > 6.30
Cc1ccnc(C#N)c1CC1c2cc(C3CC3)ccc2C(=O)N1Cc1ccc2[nH]nnc2c1 (centres unmarked) [Compound 360] :: > 6.30
Cn1cc(C#CCN2C(=O)c3ccccc3C2Cc2c(Cl)cnn2C)cn1 (centres unmarked) [Compound 501] :: 5.30 to 6.30

pEC50 of Cn1ncc(Cl)c1CC1c2cc(N3CCOCC3)ccc2C(=O)N1CC1CC2(CNC(=O)O2)C1 (centres unmarked) [Compound 463] on human enzyme NAMPT (full length) (Homo sapiens, UniProt P43490)?
5.30 to 6.30
